Give pKd for every item shown.
- Tested target: T1, postfusion RSV F ectodomain (F ΔFP), subtype A (respiratory syncytial virus subtype A, UniProt P03420 26-109; P03420 147-524)
- T1 construct: extracellular domain; also called Postfusion subtype A
- Assay procedure: BLI, IgG on sensor
Numbers only, as −log10 of the molar value.

Example binders with recorded pKd:
INSERT INTO measurements (binder, recorded_result) VALUES
  ('ADI-15666 (antibody, V domains shown, IgG; also called Antibody Number 230) VH: QVQLQQWGAGLLKPSETLSLTCGVSDGSFSAYYWNWIRQSPGKGLEWIGETNPSENTNYSPSLKNRVTISADRSANQFSLRLRSVTAADTGVYYCARGRGYYGSTTDYRGLHWFDPWGQGTLVTVSS VL: ETTLTQSPVTLSVSPGERATLSCRASQSVSFNLAWYQQKPGQAPRLLIYGASTRVTNLPLRFSGSGSGTEFTLTISSLQSEDFAVYYCQQYNNWPRTFGQGTKLEIK', 9.30),
  ('ADI-15660 (antibody, V domains shown, IgG) VH: EVQLVQSGTEVKKPGESLKISCKASGYSSFPNWIGWVRQMPGKGLEYMGSIFPDDSNTRYSPSFRGLVAISADKSLRTAYLQWSSLKASDSAIYYCARGPFPHYFDSWGQGTLVTVSS VL: NFMLTQPHSVSESPGKTVTISCTRSSGSIARNYVQWYQQRPGSSPTTVIYEDDQRPPGVPDRFSGSIDSSSNSASLTISGLQTEDEADYYCQSYDPTNQNVFGTGTKLTVL', 10.01),
  ('ADI-15599 (antibody, V domains shown, IgG; also called Antibody Number 165) VH: EVQLLESGGGLVQPGRSLRLSCSGSGFTFGDYALSWVRQAPGKGLEWVGFIRSKAYGGTTEYAASVKGRFTISRDDSKSIAYLQMNSLKTEDTAVYYCTMAVVVPGATDAFDIWGQGTMVTVSS VL: NFMLTQPHSVSESPGKTVTISCTRSSGSIASDYVQWFQQRPGSSPATVIYQDNQRPSGVPDRFSGSIDTSSNSASLTISGLKTEDEADYYCHSYDSSNPWVFGGGTKLTVL', 8.91),
  ('ADI-15640 (antibody, V domains shown, IgG; also called Antibody Number 204) VH: QVQLVESGPALVKPTQTLTLTCAFSGFSLTTRGMSVSWIRQPPGKALEWLARIDWDDDKYYSTSLKTRLTISKDTSKNQVVLTMSNMDPVDTATYYCARASLYDSGGYYLFFFDYWGQGTLVTVSS VL: DIVMTQSPSSLSASVGDRVTITCRASQSIGSYLNWYQQKPGKVPKLLIYAASNLQGGVPSRFRGSGSGTDFTLTISNLQPEDFASYYCQLSYSSLWTFGQGTKVEIK', 9.77),
  ('ADI-15610 (antibody, V domains shown, IgG; also called Antibody Number 175) VH: EVQLLESGAEVKKPGSSVKVSCKASGGTFSSYAITWVRQAPGQGLEWMGGIIPILGTTTYAQRFQGRVTITADKSTTTAYMELSRLRSEDTAVYYCAKTVSQYPNTYNYGMDVWGQGTTVTVSS VL: EIVMTQSPSSLSASVGDRVTITCRASQSVSIYLNWYQQKPGKTPELLIYGASRLQSGVPSRFSGSGSGTDFTLTISSLQPEDFATYYCLQTYSTPLTFGQGTKVEIK', 9.38),
  ('ADI-15600 (antibody, V domains shown, IgG; also called Antibody Number 166) VH: EVQLVESGGGLIQPGGSLRLSCAVSGFSVSSNYISWVRQPPGKGLEWVSVSYSSGVTDYADSVKGRFTTSRDNSKNTLYLQMNSLRGEDTAVYYCARELVPNFYESHGYFSVWGQGTLVTVSS VL: DIVMTQSPGTLSLSPGERATLSCRASQRVDSSYLAWYQQKPGQAPRLLIYGGSSRATGIPDRFSGSGSGTDFTLTISRLEPEDFALYYCQQYGFSQTFGQGTKVEIK', 9.79);

Go through the list and state pKd for each entry.
1. ADI-15006 (antibody, V domains shown, IgG; also called Antibody Number 125) VH: EVQLVESGPGLVKPSGTLSLTCTVSGDSMSDYYWSWIRQSPGRGLEWLGYIYYDGSTNYNPSLKGRGTISIDTSKSQFSLTLSSVKAADTAVYYCARGKYYDRGGYYLFYLDYWGQGILVTVSS VL: DIRLTQSPSSLSASVGDRVTITCRASQTIASYVNWYQQKPGKAPKLLIYAASSLQDGVPSRFSGSGSGTDFALTISSLQPEDFAIYFCQQSYSTPIFTFGPGTKVEIK
2. ADI-15588 (antibody, V domains shown, IgG; also called Antibody Number 155) VH: EVQLVESGPGLVKPSETLSLICRVFGGSVRRGDYNWNWIRQPPGKGLEWIGYIDYSGTTKYNPSLKSRVTISEDTSRNQFSLELRSVTAADTAMYYCARDVGSTPYNYYGMDVWGQGTTVTVSS VL: EIVLTQSPGTLSLSPGERATLSCRASQTIKNNYLAWYQQKPGQAPRLLMYGVSSRPTGIPDRFSGSGSGTDFSLTIDRLEPEDFAVYYCQQFGRSPELTFGGGTKVEIK
3. ADI-15658 (antibody, V domains shown, IgG) VH: EVQLVESGGGLVQPGRSLRLSCVTSGFGFDDYAMHWVRQAPGKGLEWVSGIGWNSGGIGYADSVKGRFSISRDNAKNSLYLQMNSLRPEDTAFYYCVKDGTPIAVAGYFEYWGQGTLVTVSS VL: SYELTQPPSASGTPGQRVTISCSGGRSNIGNNYVYWYQQLPGTAPKLLIYRHDQRPSGVPDRFSGSKSGTSASLAINGLRSEDEADYFCAVWDDSLSCYVFGAGTKLTVL
4. ADI-15582 (antibody, V domains shown, IgG) VH: QVQLVQSGGEVKKPGASVKVSCKASGYTFISYGITWVRQAPGQGPEWMGWISPYNGDTNYAQKLQGRVTMTTDTSTTTAYMELRSLRSDDTAIYYCARRYDILTGGGWFDSWGQGTLVTVSS VL: DIVMTQSPSSLSASVGDRVTINCRASQSIISYLNWYQQKPGKAPELLIYAASSLQSGVPSRFSGSGSGTEFTLTISSLQPEDFATYYCQQSYSTPLSFGPGTKVEIK

1: 9.61; 2: 9.45; 3: 9.75; 4: 9.41

Provenance of the data: patent US20220144922A1
